test system: PANC-1 cells; experiment: MTT cell viability assay, PANC-1; assay type: cell-based, human; conditions: Homo sapiens, read-out: IC50, antiproliferative activity; PANC-1, MTT, 72 h
property name: pIC50
Lab note — pIC50 values are minus log10 of concentrations in M.

Req: Return value of pIC50 for input Cc1ncc(CO)c(CNC(=O)CCC2(C)N=N2)c1O [PhP072, Cc1ncc(CO)c(c1O)CNC(=O)CCC2(C)N=N2] , no commentary.
Resp: 4.65

---

Let's look at some molecules and their measured MS labeling percentage, Lyo.
system: lysozyme (Lyo); test: Intact protein MS photoaffinity labeling screen, lysozyme; assay type: binding; conditions: intact protein MS after 10 min irradiation
Report the value in % with no unit label.

Here is how some molecules turned out for MS labeling percentage, Lyo.
molecule	unit symbol	MS labeling percentage, Lyo
CC(C)CN1CCOC(CNC(=O)CCC2(C)N=N2)C1 (stereo not shown)	%	0
Cn1cnc(CCNC(=O)CCC2(C)N=N2)c1	%	0
Cc1ccc2[nH]c(CNC(=O)CCC3(C)N=N3)nc2c1	%	0

Could you now look at the following molecule, please?
Req: Return value of MS labeling percentage, Lyo for input COc1ccc(CCNC(=O)CCC2(C)N=N2)c2ccccc12 , no commentary.
Resp: 1.7

---

Tested on: lysozyme (Lyo)
Assay: Intact protein MS photoaffinity labeling screen, lysozyme
Type: binding
Details: intact protein MS after 10 min irradiation
Description: Using a plate-based format with one fragment per well, each fragment was incubated with the target proteins for 15 min to allow for the formation of non-covalent interactions. […] Finally, the results were directly analyzed from the plate using intact protein mass spectrometry by observing the mass additions that correspond to successful labeling (Fig. 2c, for labeling % values see Supplementary data). […]
Let's look at some compounds and their measured MS labeling percentage, Lyo.
Put your answer as a value accompanied by its unit after it.

Here is how some compounds turned out for MS labeling percentage, Lyo.
compound	MS labeling percentage, Lyo
CC1(CCC(=O)NC(COCc2ccccc2)C(=O)OCc2ccccc2)N=N1 (centres unmarked) [PhP086]	0%
CC1(CCC(=O)NC2CCCC(NC(=O)OC(C)(C)C)C2)N=N1 (centres unmarked) [PhP015]	1.1%
Cn1nccc1C(=O)NCCNC(=O)CCC1(C)N=N1 [PhP095, Cn1nccc1C(=O)NCCNC(=O)CCC2(C)N=N2]	0%
CC1(CCC(=O)NCc2cc3ccccc3[nH]2)N=N1 [PhP040, N1=NC1(C)CCC(=O)NCc(c2)[nH]c(c23)cccc3]	0.3%

Req: Return value of MS labeling percentage, Lyo for input CN(C)Cc1nc2ccc(NC(=O)CCC3(C)N=N3)cc2o1 [PhP055] , no commentary.
Resp: 0%

Req: Return value of MS labeling percentage, Lyo for input CC1(CCC(=O)NCCSCc2ccccc2)N=N1 [PhP051, N1=NC1(C)CCC(=O)NCCSCc2ccccc2] , no commentary.
Resp: 0%

Req: Return value of MS labeling percentage, Lyo for input COC(=O)[C@@H](Cc1c[nH]c2ccccc12)NC(=O)CCC1(C)N=N1 [PhP036] , no commentary.
Resp: 0.4%

Req: Return value of MS labeling percentage, Lyo for input CC1(CCC(=O)NCc2ccc(-c3cncnc3)cc2)N=N1 [PhP052, N1=NC1(C)CCC(=O)NCc2ccc(cc2)-c3cncnc3] , no commentary.
Resp: 0%

---

tested on: myoglobin (Myo); assay: Intact protein MS photoaffinity labeling screen, myoglobin; assay type: binding; conditions: intact protein MS after 10 min irradiation
Our labelling divides records by MS labeling percentage, Myo into ranges: class 0 (below 0.2%), class 1 (0.2% to below 0.5%), class 2 (0.5% or more)

compound	test system	class label
CC1(CCC(=O)NCc2ccc(N3CCC(CO)CC3)cc2)N=N1 [PhP010, N1=NC1(C)CCC(=O)NCc2ccc(cc2)N3CCC(CO)CC3]	myoglobin (Myo)	class 0
COc1ccc(OC)c(C(C)NC(=O)CCC2(C)N=N2)c1 (stereo not shown) [PhP062, COc1ccc(OC)c(c1)C(C)NC(=O)CCC2(C)N=N2]	myoglobin (Myo)	class 2
CCCc1nn(C)c(C(N)=O)c1NC(=O)CCC1(C)N=N1 [PhP082, CCCc1nn(C)c(C(=O)N)c1NC(=O)CCC2(C)N=N2]	myoglobin (Myo)	class 2

We now examine a further compound.
Req: Returns: class label. Input: CC1(CCC(=O)NCc2cncc3ccccc23)N=N1 [PhP008, N1=NC1(C)CCC(=O)NCc(cnc2)c(c23)cccc3]
Resp: class 2

---

system: SW1990 cells; assay: MTT cell viability assay, SW1990; format: cell-based, human; conditions: Homo sapiens, read-out: IC50, antiproliferative activity; SW1990, MTT, 72 h
property name: IC50 (µM)
Report the value in µM with no unit label.

Req: Return value of IC50 for input Cc1ncc(CO)c(CNC(=O)CCC2(C)N=N2)c1O , no commentary.
Resp: 17.2

---

test system: carbonic anhydrase II (CA); assay: Intact protein MS photoaffinity labeling screen, carbonic anhydrase; type: binding; conditions: intact protein MS after 10 min irradiation
Let's look at some molecules and their measured MS labeling percentage, CA.
Report the value in % with no unit label.

Here is how some molecules turned out for MS labeling percentage, CA.
molecule	unit symbol	MS labeling percentage, CA
CCc1cc(NC(=O)CCC2(C)N=N2)nc(C)n1	%	0.1
Cn1c(CCNC(=O)CCC2(C)N=N2)nc2ccccc21	%	0.2
CC1(CCC(=O)NCc2cncc3ccccc23)N=N1	%	0.9

Req: Return value of MS labeling percentage, CA for input Cn1ccnc1-c1cc(NC(=O)CCC2(C)N=N2)n[nH]1 [PhP043, Cn1ccnc1-c2cc(n[nH]2)NC(=O)CCC3(C)N=N3] , no commentary.
Resp: 0.5

Req: Return value of MS labeling percentage, CA for input CC(Cc1ccc(O)c(O)c1)NC(=O)CCC1(C)N=N1 (stereo not shown) , no commentary.
Resp: 0

Req: Return value of MS labeling percentage, CA for input Cc1nc2ccccc2n1CCNC(=O)CCC1(C)N=N1 , no commentary.
Resp: 0

Req: Return value of MS labeling percentage, CA for input COc1ccc(NS(=O)(=O)c2cccc(NC(=O)CCC3(C)N=N3)c2)cc1 , no commentary.
Resp: 18.9

---

system: myoglobin (Myo); assay: Intact protein MS photoaffinity labeling screen, myoglobin; assay type: binding; details: intact protein MS after 10 min irradiation
# label = Y if MS labeling percentage, Myo >= 0.2% else N

Req: Hello, I need to know if Cc1[nH]cnc1CNC(=O)CCC1(C)N=N1 [PhP009, Cc1[nH]cnc1CNC(=O)CCC2(C)N=N2] has measured MS labeling percentage, Myo not below 0.2%. Thanks!
Resp: Y

---

system: BRD4-BD1; construct: screened the PhP library against the first bromodomain of BRD4 (BRD4-BD1); purchased GSK/GenScript; assay: Intact MS photoaffinity labeling screen, BRD4-BD1 (302 nm, LCMS-TOF); type: binding; details: experimental hit status flag (0/1)
property name: BRD4-BD1
Reply with the value as a number alone.

compound	readout value
CC1(CCC(=O)NC2CCN(c3ccc(F)cc3)CC2)N=N1	0
CN1C(=O)COc2ccc(NC(=O)CCC3(C)N=N3)cc21	0
CC1(CCC(=O)NCc2cncc3ccccc23)N=N1	0

Could you now look at the following compound, please?
Req: Return value of BRD4-BD1 for input CC1(CCC(=O)NC2CCCC(NC(=O)OC(C)(C)C)C2)N=N1 (stereo not shown) , no commentary.
Resp: 0

---

Let's look at some compounds and their measured MS labeling percentage, Lyo.
test system: lysozyme (Lyo); assay: Intact protein MS photoaffinity labeling screen, lysozyme; type: binding; settings: intact protein MS after 10 min irradiation
Report the value in % with no unit label.

compound	MS labeling percentage, Lyo (%)
CC1(CCC(=O)NCCN2CCN(c3ccc(C(F)(F)F)cn3)CC2)N=N1	0
CC1(CCC(=O)NCc2ccccc2NS(C)(=O)=O)N=N1	0

Req: Return value of MS labeling percentage, Lyo for input Cc1[nH]cnc1CNC(=O)CCC1(C)N=N1 [PhP009, Cc1[nH]cnc1CNC(=O)CCC2(C)N=N2] , no commentary.
Resp: 0

Req: Return value of MS labeling percentage, Lyo for input Cc1ncc(CO)c(CNC(=O)CCC2(C)N=N2)c1O , no commentary.
Resp: 1

---

test system: carbonic anhydrase II (CA); experiment: Intact protein MS photoaffinity labeling screen, carbonic anhydrase; format: binding; conditions: intact protein MS after 10 min irradiation
Our labelling divides records by MS labeling percentage, CA into ranges: bin A: < 0.3%; bin B: ≥ 0.3% and < 0.6%; bin C: ≥ 0.6%

Some entries whose results are on file:
compound	test system	class label
CC1(CCC(=O)NC2CCc3[nH]cnc3C2)N=N1 (centres unmarked) [PhP085, N1=NC1(C)CCC(=O)NC(CC2)Cc(c23)nc[nH]3]	carbonic anhydrase II (CA)	bin B
Cc1nnc(CNC(=O)CCC2(C)N=N2)[nH]1 [PhP093, Cc1nnc([nH]1)CNC(=O)CCC2(C)N=N2]	carbonic anhydrase II (CA)	bin B
COc1ccc(S(=O)(=O)N2CCC(NC(=O)CCC3(C)N=N3)CC2)cc1	carbonic anhydrase II (CA)	bin C
COc1ccccc1OCCNC(=O)CCC1(C)N=N1	carbonic anhydrase II (CA)	bin A
CN1C(=O)COc2ccc(NC(=O)CCC3(C)N=N3)cc21	carbonic anhydrase II (CA)	bin A
CC1(CCC(=O)NCCNC(=O)Nc2ccccc2)N=N1	carbonic anhydrase II (CA)	bin B

Req: Returns: class label. Input: COC(=O)[C@@H](Cc1c[nH]c2ccccc12)NC(=O)CCC1(C)N=N1
Resp: bin A

Req: Returns: class label. Input: CN(C)CC(=O)Nc1cccc(NC(=O)CCC2(C)N=N2)c1
Resp: bin A
